- Tested on: SN12C renal
- Assay Text: NCI-60 one-dose screen, 48 h (100 = growth as untreated, 0 = no growth, -100 = all killed)
- Measurement Conditions: 10 µM unless noted
The panel holds about 83,000 compounds, 20% with a hit somewhere; the sample as a whole holds those more often.
Assay Endpoint: growth (%)

Compound: CN(C)C1C(=O)C(C(N)=O)=C(O)C2(O)C(=O)C3=C(O)c4c(O)cccc4C(C)(O)C3CC12.[Cl][Sb]([Cl])[Cl] (stereo not given)
Tested Target: SN12C renal
Experimental Result: 41.8

Compound: COC(=O)[C@@H](NC(=O)c1cn(CCC2CCCCC2)c2ccccc12)C(C)(C)C
Tested Target: SN12C renal
Experimental Result: 65.7

Compound: CC(C)[C@@H]1NC(=O)[C@]2(C)CSC(=N2)c2csc(n2)CNC(=O)C[C@@H](/C=C/CCS)OC1=O
Tested Target: SN12C renal
Experimental Result: 31.7

Compound: COc1ccc(Nc2ccnc3cc(Cl)ccc23)cc1CN(CCCl)CCCl
Tested Target: SN12C renal
Experimental Result: 2.25

Compound: COC(C(=O)[C@@H](O)[C@@H](C)O)[C@@H]1Cc2cc3cc(O[C@H]4C[C@@H](O[C@H]5C[C@@H](O)[C@H](O)C(C)O5)[C@H](O)C(C)O4)c(C)c(O)c3c(O)c2C(=O)[C@H]1O[C@H]1C[C@@H](O[C@H]2C[C@@H](O[C@H]3C[C@@H](O)[C@@H](O)C(C)O3)[C@@H](O)C(C)O2)[C@H](O)C(C)O1 (stereo not given in full)
Tested Target: SN12C renal
Experimental Result: 7.47

Compound: CC1(C)[C@H](O)[C@H](F)C[C@@]2(C)Oc3ccc(C(=O)Nc4ccc5c(c4)NC(=O)C54CCN(CCCCC#N)CC4)cc3C[C@H]12
Tested Target: SN12C renal
Experimental Result: 69.9

Compound: Fc1ccc(C2=CCNCC2)cc1
Tested Target: SN12C renal
Experimental Result: 73

Compound: O=C1C(Cl)=C(N2CCOCC2)C(=O)c2ccccc21
Tested Target: SN12C renal
Experimental Result: 105

Compound: CN1C(=O)N[C@H]2[C@@H]3NC(=O)c4ccc(Br)n4[C@@H]3C[C@]21O
Tested Target: SN12C renal
Experimental Result: -14.1

Compound: COc1ccc2c(c1)c(-c1nc(-c3cn(C)c4ncccc34)cs1)cn2CCN1CCOCC1
Tested Target: SN12C renal
Experimental Result: 34.3

Compound: O=[N+]([O-])c1cc(I)cc([N+](=O)[O-])c1
Tested Target: SN12C renal
Experimental Result: 103

Compound: CC(C)=CCC[C@H](C(=O)O)[C@@H]1CC[C@]2(C)C3=C(CC[C@@]12C)[C@@]1(C)CC[C@H](O)C(C)(C)[C@@H]1CC3
Tested Target: SN12C renal
Experimental Result: 102

Compound: COc1cc2ncnc(Nc3ccc(F)c(Cl)c3)c2cc1OCC(=O)N1CCN(C)CC1
Tested Target: SN12C renal
Experimental Result: 76.9

Compound: CN(C)C(=O)Oc1ccccc1
Tested Target: SN12C renal
Experimental Result: 106

Compound: C=CC[PH+](c1ccccc1)c1ccccc1.C=CC[PH+](c1ccccc1)c1ccccc1.[Cl][Pt][Cl]
Tested Target: SN12C renal
Experimental Result: 30.6

Compound: CN1CC(CNC(=O)OCc2ccccc2)CC2c3cccc4c3c(cn4C)CC21 (stereo not given)
Tested Target: SN12C renal
Experimental Result: 45

Compound: CC[C@H](C)[C@H](NC(=O)[C@H]1CCCCN1C)C(=O)N(C)[C@H](C[C@@H](O)c1nc(C(=O)N[C@@H](Cc2ccccc2)C[C@H](C)C(=O)O)cs1)C(C)C
Tested Target: SN12C renal
Experimental Result: 90.5

Compound: CC(C)COC(C[N+](=O)[O-])C(Cl)(Cl)Cl (stereo not given)
Tested Target: SN12C renal
Experimental Result: 105

Compound: CC[C@H](C)[C@H](NC(=O)[C@H]1CCCCN1C)C(=O)N(C)[C@H](C[C@@H](OC(C)=O)c1nc(C(=O)N[C@@H](Cc2ccccc2)C[C@H](C)C(=O)OC)cs1)C(C)C
Tested Target: SN12C renal
Experimental Result: 37.2

Compound: CCC(C)(C)[C@H](NC(=O)[C@H]1CCCCN1C)C(=O)N(C)[C@H](C[C@@H](OC(C)=O)c1nc(C(=O)N[C@@H](Cc2ccccc2)C[C@H](C)C(=O)O)cs1)C(C)C
Tested Target: SN12C renal
Experimental Result: 17.5
